tested.system: Solute carrier family 22 member 1 (Homo sapiens)
Sequence (O15245 whole entry): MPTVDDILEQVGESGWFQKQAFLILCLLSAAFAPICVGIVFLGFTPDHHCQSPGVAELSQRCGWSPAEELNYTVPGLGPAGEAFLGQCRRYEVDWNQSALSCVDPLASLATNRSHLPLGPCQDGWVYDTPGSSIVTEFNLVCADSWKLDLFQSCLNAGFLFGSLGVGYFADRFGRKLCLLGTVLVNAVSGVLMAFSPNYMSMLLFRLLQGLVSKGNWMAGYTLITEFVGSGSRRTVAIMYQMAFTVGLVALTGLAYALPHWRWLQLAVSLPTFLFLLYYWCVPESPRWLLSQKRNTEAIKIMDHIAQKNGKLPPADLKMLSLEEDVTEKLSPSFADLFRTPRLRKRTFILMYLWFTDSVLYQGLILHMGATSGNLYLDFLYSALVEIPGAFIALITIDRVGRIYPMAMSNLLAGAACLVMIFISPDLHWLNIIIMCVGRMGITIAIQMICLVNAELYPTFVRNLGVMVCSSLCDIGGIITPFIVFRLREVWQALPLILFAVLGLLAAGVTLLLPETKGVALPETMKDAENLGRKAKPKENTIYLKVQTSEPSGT
protocol.summary: Inhibition of human OCT1 expressed in HEK293 cells assessed as reduction in ASP+ substrate uptake by microplate reader based analysis
Field: IC50. Provide a value for each of the compounds that follow.

Field: example entries. Status: answers known.
Q: Which IC50 reading was recorded for the compound CN1CC[C@]23CCCC[C@H]2[C@H]1Cc1ccc(O)cc13 [LEVORPHANOL] ?
A: 8 to 8.48 µM

Q: Quick one: CN1CC[C@]23c4c5ccc(O)c4O[C@H]2[C@@H](O)C=C[C@H]3[C@H]1C5 [MORPHINE]
A: 71.8 to 72 µM

Q: Quick one: COc1ccc2c(c1)[C@@]13CCCC[C@H]1[C@@H](C2)NCC3
A: 10 to 10.3 µM

Q: Quick one: Oc1ccc2c(c1)[C@@]13CCCC[C@H]1[C@@H](C2)NCC3 [NORLEVORPHANOL]
A: 24.9 to 25 µM

New cases:
Q: Which IC50 reading was recorded for the compound CN1CC[C@@]23CCCC[C@@H]2[C@@H]1Cc1ccc(O)cc13 [DEXTRORPHAN] ?
A: 6 to 6.4 µM
